- System: HepG2
- assay_method_text: Hepatocyte toxicity
- Format: cell-based, human
- condition_parameters: HepG2
quantity: Hepatocyte Toxicity (µM)
// return numeric value only (unit: µM, not printed)

Query: Tell us which Hepatocyte Toxicity value is on record for COc1ccc(-c2nc(NC(=O)Cc3ccc4c(c3)OCCO4)sc2C)cc1
Response: 20.33

Query: Quickly give me recorded Hepatocyte Toxicity for Nc1ccc(-c2nc3cc(Cc4ccc5[nH]c(-c6ccc(N)cc6)nc5c4)ccc3[nH]2)cc1
Response: 14.29

Query: Please give measured Hepatocyte Toxicity of the following entry: Cc1nc2ccc3ccc(CNc4ccc(C(=O)CC(CCC(=O)O)C(=O)O)cc4)cc3c2c(=O)[nH]1.Cl (stereo not drawn)
Response: 11.61

Further cases:
Query: Consider the compound c1cc(-c2cnc3ccc(-c4ccc(N5CCOCC5)cc4)nn23)ccn1 . State its measured Hepatocyte Toxicity.
Response: 5.119

---

- Test system: GNF449-R2 (PfATP4 I203L and P990R, parent Dd2)
- assay_method_text: Cross-resistance EC50 assay, GNF449-R2
- Type: cell-based
- condition_parameters: Plasmodium falciparum, SYBR green 72 hour assay, asynchronized parasites, 96-well or 1536-well format
In this section, each of the compounds is paired with its reported log10(EC50).
Plainly stated, the numbers are log10 of EC50 given in µM.

Some compounds with known log10(EC50) results, for comparison:
Query: Provide log10(EC50) value for the following compound: COc1ccccc1CNC(=O)CCn1c(=O)[nH]c2ccsc2c1=O
Response: -2.10

Query: Give the reported value of log10(EC50) for this record: Cc1ccc(Oc2ncccc2C(=O)Cc2cccc3cccnc23)c(C)c1
Response: 0.42

Query: Input CCC(C)NCC(O)(c1ccc(Cl)cc1)c1ccc(Cl)cc1 (centres unmarked) , output reported log10(EC50).
Response: -0.80

Others:
Query: Please list log10(EC50) recorded for the compound Cc1ccc(Cn2c(N3CCC(C(=O)NCc4cccs4)CC3)nc3ccccc32)cc1
Response: -0.13

Query: Let me know recorded log10(EC50) for CNCc1ccc2nc(-c3coc(Cc4cc(Cl)ccc4OCC(C)C)n3)[nH]c2c1.Cl.Cl , thanks.
Response: -0.51

---

- System: TM90C2A (DHFR, folate pathway; compared with 3D7)
- assay_method_text: Cross-resistance EC50 assay, TM90C2A
- Type: cell-based
- condition_parameters: Plasmodium falciparum, 48 h, read-out: TM90C2A (3D7 Parent) Average EC50
Quick rule for you: EC50 under 200 nM gets 1, anything else gets -1.

Study these solved cases before continuing.
Query: Does this compound meet the criterion EC50 < 200 nM? Cc1cc(Nc2ccc(OCc3ccccc3)cc2)nc2cc(O)ccc12 [MMV007181]
Response: -1

Query: Given COc1cc(-c2nc(-c3ccccc3)c(-c3ccccc3)[nH]2)cc(OC)c1O [MMV020750] , is recorded EC50 strictly lower than 200 nM?
Response: -1

Query: Given the entry Brc1ccc(Nc2nc3ccccc3nc2Nc2ccc(Br)cc2)cc1 [MMV007224] , would its reported EC50 be below 200 nM?
Response: 1

Query: Consider COc1cc(C(=O)ON=C(N)Cc2cccc3ccccc23)cc(OC)c1OC [MMV666687] . Does its EC50 lie strictly below 200 nM?
Response: 1

Query: Please let me know if COc1ccc(NC(=O)N2CCCCN3[C@H](CO)[C@H](c4ccc(C#Cc5ccccc5)cc4)[C@@H]3C2)cc1 [BRD3444] shows EC50 below 200 nM.
Response: 1

Turning now to a further compound:
Query: hey, is EC50 for COc1cc2cc(C(=O)Nc3ccccc3)c(N)nc2cc1OC [MMV006767] lower than 200 nM or not?
Response: -1
